- MEASUREMENT TARGET: HNF-1A DBD N266S (Homo sapiens, UniProt P20823 83-279, N266S)
- Sequence (P20823 83-279 N266S): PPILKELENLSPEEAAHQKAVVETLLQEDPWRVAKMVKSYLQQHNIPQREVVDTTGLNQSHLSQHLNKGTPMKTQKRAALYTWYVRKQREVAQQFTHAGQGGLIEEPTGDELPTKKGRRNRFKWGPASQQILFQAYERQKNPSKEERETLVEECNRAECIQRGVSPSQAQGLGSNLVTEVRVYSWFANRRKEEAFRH
- ASSAY TEXT: ITC
MEASURE NAME: Kd
Please state the value followed by its unit.

Give reported Kd value for RA (rat albumin promoter oligonucleotide), unlabeled (dsDNA) DNA 1: CTTGGTTAATAATTCACCAGA DNA 2: TCTGGTGAATTATTAACCAAG
570 nM

Data provenance: paper PMC8988010
